measurement_notes: Pharmacokinetics in AAV8-CYP3A4*12 mice
setup_conditions: C57BL/6J, mouse, serum, po, 16.5 mg/kg, t1/2z, carvedilol 7.5 mg/kg 0.5 h before aumolertinib 16.5 mg/kg oral (Car+Aum)
endpoint: half-life (h)
The figure you give is taken to be in h; do not add the unit.

Which value of half-life has been reported for C=CC(=O)Nc1cc(Nc2nccc(-c3cn(C4CC4)c4ccccc34)n2)c(OC)cc1N(C)CCN(C)C in the records?
6.44

###

measurement_notes: Pharmacokinetics in AAV8-CYP3A4*1 mice
setup_conditions: C57BL/6J, mouse, in vivo, po, 16.5 mg/kg, Vz/F, telmisartan 12 mg/kg 0.5 h before aumolertinib 16.5 mg/kg oral (Tel+Aum)
endpoint: Vd/F (L/kg)
Report the value in L/kg with no unit label.

// lookup Vd/F for C=CC(=O)Nc1cc(Nc2nccc(-c3cn(C4CC4)c4ccccc34)n2)c(OC)cc1N(C)CCN(C)C
49.9
